Listing of recorded half-life at 1 μM by entry.
- Experiment Description: Metabolic Stability assay, rat liver microsomes
- Type: in vitro ADME
- Experimental Setup: read-out: LM T1/2 (min) (rat)

| Compound | Prefix Operator | half-life at 1 μM (min) |
| --- | --- | --- |
| Cc1cccc(C(=O)c2ccc(N3CC[C@H](Oc4ncccc4Cl)C3)c(CO)c2)c1 | = | 16.1 |
| Cc1ccccc1C(O)c1ccc(N2CC[C@H](Oc3ncccc3Cl)C2)c(CO)c1 (stereo partly drawn) | = | 13.1 |
| CCc1ccccc1Oc1ccc(N2CC[C@H](Oc3ncccc3F)C2)c(CO)c1 | = | 30.6 |
| NC(=O)c1cc(-c2ccccc2)ccc1N1CC[C@H](Oc2ccc(C(F)(F)F)cn2)C1 | = | 44.3 |
| NC(=O)c1cc(C(O)c2ccccc2)ccc1N1CC[C@H](Oc2ncccc2Cl)C1 (stereo partly drawn) | = | 8.72 |
| NC(=O)c1cc(C(=O)c2ccccc2)ccc1N1CC[C@@H](Oc2ccc(C(F)(F)F)cn2)C1 | = | 54.5 |
| Cc1ccccc1C(=O)c1ccc(N2CC[C@H](Oc3ncccc3F)C2)c(CO)c1 | = | 6.26 |
| OCCOc1cc(-c2ccccc2Cl)ccc1N1CC[C@H](Oc2ccc(C(F)(F)F)cn2)C1 | = | 55 |
| CC(O)c1cc(-c2ccccc2)ccc1N1CC[C@H](Oc2ccc(C(F)(F)F)cn2)C1 (stereo partly drawn) | = | 33.3 |
| O=C(CO)c1cc(-c2ccccc2)ccc1N1CC[C@H](Oc2ccc(C(F)(F)F)cn2)C1 | = | 66.5 |
| NC(=O)c1cc(-c2ccccc2)ccc1N1CC[C@H](Nc2ncccc2Cl)C1 | = | 35.6 |
| OCc1cc(Oc2ccccc2)ccc1N1CC[C@H](Oc2ncccc2Cl)C1 | = | 26.7 |
| Cc1ccccc1C(=O)c1ccc(N2CC[C@H](Oc3ncccc3Cl)C2)c(CO)c1 | = | 7.36 |
| NC(=O)c1cc(C(F)(F)F)ccc1N1CC[C@H](Oc2ccc(C(F)(F)F)cn2)C1 | > | 60 |
| Cc1ccccc1Oc1ccc(N2CC[C@H](Oc3ncccc3Cl)C2)c(CO)c1 | = | 27.9 |
| COc1ccccc1Oc1ccc(N2CC[C@H](Oc3ncccc3Cl)C2)c(CO)c1 | = | 12.9 |
| Cc1ccc(C(=O)c2ccc(N3CC[C@H](Oc4ncccc4Cl)C3)c(CO)c2)cc1 | = | 15.7 |
| CCc1ccccc1Oc1ccc(N2CC[C@H](Oc3ncccc3Cl)C2)c(CO)c1 | = | 18.7 |
| CCc1ccccc1Oc1ccc(N2CC[C@H](Nc3ncccc3Cl)C2)c(CO)c1 | = | 20.9 |
| OCc1cc(Oc2cccc(Cl)c2)ccc1N1CC[C@H](Oc2ccccn2)C1 | = | 17.5 |
| CC(C)c1ccccc1Oc1ccc(N2CC[C@H](Oc3ccccn3)C2)c(CCO)c1 | = | 12.1 |
| CCc1c(Cl)ncnc1Oc1ccc(N2CC[C@H](Oc3ncccc3Cl)C2)c(CO)c1 | = | 16.7 |
| OCCc1cc(C(O)c2ccccc2Cl)ccc1N1CC[C@H](Nc2ccc(F)cn2)C1 (stereo partly drawn) | = | 7.23 |
| Cc1ccc(O[C@H]2CCN(c3ccc(-c4ccccc4)cc3CO)C2)nc1 | = | 38.4 |
| OCCc1cc(Oc2ccccc2F)ccc1N1CC[C@H](Oc2ncccc2F)C1 | = | 9.29 |
| Cc1ccccc1Oc1ccc(N2CC[C@H](Oc3ncccc3Cl)C2)c(CCO)c1 | = | 21.9 |
| Cc1cccnc1O[C@H]1CCN(c2ccc(-c3ccccc3)cc2CO)C1 | = | 23.5 |
| Cc1ccccc1Oc1ccc(N2CC[C@H](Nc3ncccc3Cl)C2)c(CO)c1 | = | 31.4 |
| CCOc1ccccc1-c1ccc(N2CC[C@H](Oc3ccc(C(F)(F)F)cn3)C2)c(CO)c1 | = | 22.8 |
| Cc1ccccc1Oc1ccc(CO)c(N2CC[C@H](Oc3ncccc3Cl)C2)c1 | = | 6.19 |
| CCc1cc(F)ccc1Oc1ccc(N2CC[C@H](Oc3ccccn3)C2)c(CO)c1 | = | 24.8 |
| OCc1cc(Oc2ccccc2Cl)ccc1N1CC[C@H](Oc2ncccc2Cl)C1 | = | 17.2 |
| COc1ccccc1Oc1ccc(N2CC[C@H](Oc3ccc(C)cn3)C2)c(CO)n1 | = | 16 |

Recorded values, source patent US12435061B2.
